target: Tyrosine-protein phosphatase non-receptor type 13 (Homo sapiens, UniProt Q12923); test: Inhibitory concentration against FAP-1 using pNPP as substrate
Sequence (Q12923 whole entry): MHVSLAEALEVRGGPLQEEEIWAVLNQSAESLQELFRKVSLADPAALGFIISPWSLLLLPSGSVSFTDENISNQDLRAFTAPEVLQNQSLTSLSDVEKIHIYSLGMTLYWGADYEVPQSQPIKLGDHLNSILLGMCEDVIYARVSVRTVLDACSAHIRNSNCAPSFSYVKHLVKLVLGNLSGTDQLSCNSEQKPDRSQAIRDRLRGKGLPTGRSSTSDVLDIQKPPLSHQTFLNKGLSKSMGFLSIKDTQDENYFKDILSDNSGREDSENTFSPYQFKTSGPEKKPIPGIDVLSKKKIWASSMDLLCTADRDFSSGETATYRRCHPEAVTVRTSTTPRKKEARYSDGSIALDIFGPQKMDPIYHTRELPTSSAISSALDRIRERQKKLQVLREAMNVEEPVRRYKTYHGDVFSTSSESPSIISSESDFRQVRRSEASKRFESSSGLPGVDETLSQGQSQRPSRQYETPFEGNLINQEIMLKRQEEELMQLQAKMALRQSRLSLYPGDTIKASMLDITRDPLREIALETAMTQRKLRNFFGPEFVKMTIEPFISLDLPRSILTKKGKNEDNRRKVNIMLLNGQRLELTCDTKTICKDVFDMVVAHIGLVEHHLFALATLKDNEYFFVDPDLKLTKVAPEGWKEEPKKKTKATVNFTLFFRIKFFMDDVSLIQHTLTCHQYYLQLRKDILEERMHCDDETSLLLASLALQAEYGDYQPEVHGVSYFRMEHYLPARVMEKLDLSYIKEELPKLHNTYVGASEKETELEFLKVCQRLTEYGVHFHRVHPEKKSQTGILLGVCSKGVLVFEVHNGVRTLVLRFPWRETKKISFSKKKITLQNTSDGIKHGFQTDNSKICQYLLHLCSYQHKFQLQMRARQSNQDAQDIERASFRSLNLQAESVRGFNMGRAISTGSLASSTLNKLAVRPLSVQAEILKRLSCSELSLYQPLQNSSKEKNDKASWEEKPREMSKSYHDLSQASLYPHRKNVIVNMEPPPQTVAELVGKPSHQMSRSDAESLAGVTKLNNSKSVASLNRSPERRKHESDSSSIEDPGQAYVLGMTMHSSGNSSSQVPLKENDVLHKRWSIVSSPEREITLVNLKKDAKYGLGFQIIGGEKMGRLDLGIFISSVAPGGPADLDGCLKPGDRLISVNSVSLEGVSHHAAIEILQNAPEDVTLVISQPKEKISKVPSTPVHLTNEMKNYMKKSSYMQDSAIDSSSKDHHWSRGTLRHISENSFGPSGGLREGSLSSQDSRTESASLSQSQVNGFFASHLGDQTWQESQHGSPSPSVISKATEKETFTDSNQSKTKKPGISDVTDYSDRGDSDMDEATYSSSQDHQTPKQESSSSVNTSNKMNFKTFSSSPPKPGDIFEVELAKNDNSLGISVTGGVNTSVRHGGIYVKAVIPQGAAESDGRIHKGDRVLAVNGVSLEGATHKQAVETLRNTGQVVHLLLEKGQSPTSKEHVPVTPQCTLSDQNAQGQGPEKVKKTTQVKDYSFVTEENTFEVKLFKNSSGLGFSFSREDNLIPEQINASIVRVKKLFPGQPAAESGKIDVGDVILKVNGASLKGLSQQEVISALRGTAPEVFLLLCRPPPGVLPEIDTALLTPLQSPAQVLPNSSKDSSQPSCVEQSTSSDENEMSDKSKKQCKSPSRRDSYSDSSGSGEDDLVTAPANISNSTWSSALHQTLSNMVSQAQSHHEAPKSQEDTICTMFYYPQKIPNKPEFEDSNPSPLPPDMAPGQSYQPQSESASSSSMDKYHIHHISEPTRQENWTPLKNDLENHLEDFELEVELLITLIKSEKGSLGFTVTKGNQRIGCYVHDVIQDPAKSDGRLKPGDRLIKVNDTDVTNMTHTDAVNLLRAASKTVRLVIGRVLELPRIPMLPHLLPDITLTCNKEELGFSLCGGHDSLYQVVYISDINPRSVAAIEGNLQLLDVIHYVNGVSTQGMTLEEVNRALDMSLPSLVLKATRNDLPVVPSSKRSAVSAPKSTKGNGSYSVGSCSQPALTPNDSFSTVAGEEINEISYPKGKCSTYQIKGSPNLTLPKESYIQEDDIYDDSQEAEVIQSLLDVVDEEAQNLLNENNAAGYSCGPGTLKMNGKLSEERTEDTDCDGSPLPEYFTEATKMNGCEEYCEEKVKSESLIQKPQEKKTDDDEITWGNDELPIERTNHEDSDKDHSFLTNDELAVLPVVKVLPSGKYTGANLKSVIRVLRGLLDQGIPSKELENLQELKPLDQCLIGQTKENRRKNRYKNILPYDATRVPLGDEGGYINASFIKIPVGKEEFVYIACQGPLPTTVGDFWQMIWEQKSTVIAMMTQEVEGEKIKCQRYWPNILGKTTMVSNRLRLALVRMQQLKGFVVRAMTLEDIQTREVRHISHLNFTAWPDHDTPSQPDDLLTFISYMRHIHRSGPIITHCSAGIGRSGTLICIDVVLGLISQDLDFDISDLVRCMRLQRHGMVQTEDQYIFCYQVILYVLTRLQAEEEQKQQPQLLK
Measured Quantity: IC50 (µM)
Only the number, expressed in µM, is required.

INPUT: For the compound shown here, Nc1ccc2c(c1)C(=O)C(=O)c1ccccc1-2 , give the reported IC50.
OUTPUT: 4.7

---

Answer each item with its documented log10 IC50.
molecular target: Tyrosine-protein phosphatase non-receptor type 13 (Homo sapiens, UniProt Q12923); test: Inhibitory concentration against FAP-1 pNPP
Recall that a logarithmic scale is used here: each number is log10 of IC50 in µM.

INPUT: Value wanted: log10 IC50 (Tyrosine-protein phosphatase non-receptor type 13 (Homo sapiens, UniProt Q12923)) of entry O=C(O)CNC(=O)c1ccc2c(c1)C(=O)C(=O)c1ccccc1-2
OUTPUT: 1.18

INPUT: Next molecule: O=C(Nc1ccc2c(c1)C(=O)C(=O)c1ccccc1-2)c1ccccc1F
OUTPUT: -0.22

INPUT: Next molecule: COC(=O)CCCCCCC(=O)Nc1ccc2c(c1)C(=O)C(=O)c1ccccc1-2
OUTPUT: 1.00

INPUT: Next molecule: CC(C)(C)C(=O)Nc1ccc2c(c1)C(=O)C(=O)c1ccccc1-2
OUTPUT: 0.85

INPUT: Next molecule: COC(=O)CCC(=O)Nc1ccc2c(c1)C(=O)C(=O)c1cc(NC(=O)CCC(=O)OC)ccc1-2
OUTPUT: 1.08

INPUT: Next molecule: COC(=O)CCC(=O)Nc1cccc2c1C(=O)C(=O)c1ccccc1-2
OUTPUT: 0.64

INPUT: Next molecule: O=C1C(=O)c2cccnc2-c2ccccc21
OUTPUT: 1.15
